The measurements presented in this section are drawn from patent US20190085024A1.

Biological target: Calpain
Experiment: Calpain enzyme assay
Conditions: Ki by Morrison equation; pH 7.5, 5 mM CaCl2
*1 amine or outer side, *2 acyl side, *3 side chain or, on linkers, in order; H or OH if unused. Where a SMILES comes first, the peptide text is derived from it. [ ]: non-standard residue; d: D form. The star is where a group is joined. 2Nal = N[CH](Cc1ccc2ccccc2c1)C(=O)O; X2 = C=CCOCC(N[*:1])C(=O)C(=O)[*:2]; PhAc = O=C(Cc1ccccc1)*; Allyl = C=CC*
Please assign false whenever Ki is at or above 7 nM, and true whenever it is below.

COMPOUND	STUDY_TARGET	LABEL_CLASS
CC[C@H](C)[C@H](NC(=O)C(=O)C(C)(C)NC(=O)[C@H](Cc1ccccc1)NC(=O)Cc1ccccc1)C(=O)NC(C)(C)C(=O)O	Calpain	false
CCC(C)C(NC(=O)C(CC(C)C)NC(=O)OCc1ccccc1)C(=O)C(=O)NC(Cc1ccncc1)C(N)=O (centres unmarked)	Calpain	false
CC(NC(=O)C(Cc1ccccc1)NC(=O)c1cccc(F)c1)C(=O)C(=O)NC(Cc1ccccc1)C(=O)NC(C)(C)C(N)=O (centres unmarked)	Calpain	false
CCC(C)C(NC(=O)C(CC(C)C)NC(=O)OCc1ccccc1)C(=O)C(=O)NC(CCC(N)=O)C(=O)NC(Cc1ccc2ccccc2c1)C(N)=O (centres unmarked)	Calpain	false
CC(NC(=O)C(Cc1ccccc1)NC(=O)Cc1ccccc1)C(=O)C(=O)NC(Cc1ccccc1)C(=O)NC(C)(C)C(=O)NCCc1ccccc1 (centres unmarked)	Calpain	false
CCC(C)C(NC(=O)C(CC(C)C)NC(=O)Cc1cccnc1)C(=O)C(=O)NCC(=O)NC(Cc1ccc2ccccc2c1)C(N)=O (centres unmarked)	Calpain	true
CCC(C)C(NC(=O)C(CC(C)C)NC(=O)C(Cc1ccccc1)NC(=O)OCc1ccccc1)C(=O)C(=O)NC(CCCNC(=N)N)C(N)=O (centres unmarked) [PHELIX294]	Calpain	true
CCC(C)C(NC(=O)C(CC(C)C)NC(=O)OCc1ccccc1)C(=O)C(=O)NC(Cc1cccc(F)c1)C(N)=O (centres unmarked)	Calpain	true
C=CCOCC(NC(=O)C(CC(C)C)NC(=O)C(Cc1ccc(OCC=C)cc1)NC(=O)Cc1ccccc1)C(=O)C(=O)NCC(=O)NC(Cc1ccc2ccccc2c1)C(N)=O (centres unmarked) [PHELIX202] (PhAc-Y(Allyl)L[X2]G[2Nal]-NH2; configuration not given here)	Calpain	false
CCC(C)C(NC(=O)C(CC(C)C)NC(=O)OCc1ccccc1)C(=O)C(=O)NCC(=O)NC(Cc1ccncc1)C(N)=O (centres unmarked)	Calpain	false
CC[C@H](C)C(NC(=O)[C@H](CC(C)C)NC(=O)OCc1ccccc1)C(=O)C(=O)N[C@@H](CCCNC(=N)N)C(N)=O (some centres unmarked)	Calpain	false
CCC(C)C(NC(=O)C(CC(C)C)NC(=O)OCc1ccccc1)C(=O)C(=O)NC(CCCNC(=N)N)C(=O)NC(Cc1ccc2ccccc2c1)C(N)=O (centres unmarked) [PHELIX289]	Calpain	false
CCC(C)C(C(=O)C(=O)NCC(=O)NC(Cc1ccc2ccccc2c1)C(N)=O)N(C)C(=O)C(CC(C)C)NC(=O)OCc1ccccc1 (centres unmarked) [PHELIX292]	Calpain	false
CCC(C)C(NC(=O)C(CC(C)C)NC(=O)OCc1ccccc1)C(=O)C(=O)N1CC(C(=O)NCc2cncnc2)C1 (centres unmarked)	Calpain	false
CCC(C)C(NC(=O)C(CC(C)C)NC(=O)OCc1ccccc1)C(=O)C(=O)NCC(=O)NC(Cc1cccc(F)c1)C(N)=O (centres unmarked)	Calpain	true
CC(NC(=O)C(Cc1ccccc1)NC(=O)c1ccccc1F)C(=O)C(=O)NC(Cc1ccccc1)C(=O)NC(C)(C)C(N)=O (centres unmarked)	Calpain	false
CC(NC(=O)C(Cc1cccnc1)NC(=O)Cc1ccccc1)C(=O)C(=O)NC(Cc1ccccc1)C(=O)NC(C)(C)C(N)=O (centres unmarked)	Calpain	false

* * *

Molecular target: Calpain
Test: Calpain enzyme assay
Conditions: Ki by Morrison equation; pH 7.5, 5 mM CaCl2
# Lookup of reported Ki keyed by entry

COMPOUND	STUDY_TARGET	Ki
CCCC(NC(=O)C(=O)C(C)NC(=O)C(Cc1ccccc1)NC(=O)Cc1ccccc1)C(=O)NC(C)(C)C(N)=O (centres unmarked) [PHELIX243]	Calpain	> 10 µM
CC(NC(=O)C(Cc1ccccc1)NC(=O)Cc1ccccc1)C(=O)C(=O)NC(CC1CCCCC1)C(=O)NC(Cc1ccc(-c2ccccc2)cc1)C(N)=O (centres unmarked) [PHELIX259]	Calpain	> 10 µM
CC[C@H](C)C(NC(=O)[C@H](CC(C)C)NC(=O)OCc1ccccc1)C(=O)C(=O)N1CC(C(=O)O)C1 (some centres unmarked) [PHELIX367]	Calpain	> 1 µM
CCC(C)C(NC(=O)C(=O)C(C)NC(=O)C(Cc1ccccc1)NC(=O)Cc1ccccc1)C(=O)NC(C)(C)C(=O)O (centres unmarked) [PHELIX149]	Calpain	> 100 µM
Cc1ccccc1CC(=O)NC(Cc1ccccc1)C(=O)NC(C)C(=O)C(=O)NC(Cc1ccccc1)C(=O)NC(C)(C)C(N)=O (centres unmarked) [PHELIX226]	Calpain	> 10 µM

* * *

Target: Calpain
Test: Calpain enzyme assay
Conditions: Ki by Morrison equation; pH 7.5, 5 mM CaCl2
MEASUREMENT_NAME: Ki (µM)

COMPOUND	STUDY_TARGET	RELATION_SIGN	OBSERVED
CC(NC(=O)C(Cc1cccc(F)c1)NC(=O)Cc1ccccc1)C(=O)C(=O)NC(Cc1ccccc1)C(=O)NC(C)(C)C(N)=O (stereo not drawn)	Calpain	>	10
CC(NC(=O)C(Cc1ccccc1)NC(=O)Cc1cccc(F)c1)C(=O)C(=O)NC(Cc1ccccc1)C(=O)NC(C)(C)C(N)=O (stereo not drawn)	Calpain	>	10
CC(NC(=O)C(Cc1ccccc1)NC(=O)Cc1ccccc1)C(=O)C(=O)NC(Cc1ccccc1F)C(=O)NC(Cc1ccc(-c2ccccc2)cc1)C(N)=O (stereo not drawn)	Calpain	>	10
CCC(C)C(NC(=O)C(=O)C(C)NC(=O)C(Cc1ccccc1)NC(=O)Cc1ccccc1)C(=O)NC1(C(=O)O)CCCC1 (stereo not drawn)	Calpain	>	100
CCC(C)C(NC(=O)C(CC(C)C)NC(=O)OCc1ccccc1)C(=O)C(=O)NCC(=O)NC(Cc1ccc2ccccc2c1)C(N)=O (stereo not drawn) [PHELIX293]	Calpain	=	1.19
CC(C)CC(NC(=O)C(Cc1ccccc1)NC(=O)OCc1ccccc1)C(=O)NC(Cc1ccccc1)C(=O)C(=O)NC(CCCNC(=N)N)C(N)=O (stereo not drawn) [PHELIX254]	Calpain	=	0.00342
C=CCOC(=O)NCCCCC(NC(=O)C(=O)C(NC(=O)C(CC(C)C)NC(=O)C(Cc1ccccc1)NC(=O)OCc1ccccc1)C(C)CC)C(N)=O (stereo not drawn)	Calpain	=	0.00434
CCC(C)C(NC(=O)C(=O)C(C)NC(=O)[C@H](Cc1cncs1)NC(=O)Cc1ccccc1)C(=O)NC(C)(C)C(=O)O (stereo partly drawn)	Calpain	>	100
CCC(C)C(NC(=O)C(CC(N)=O)NC(=O)Cc1ccccc1)C(=O)C(=O)NCC(=O)NC(Cc1ccc2ccccc2c1)C(N)=O (stereo not drawn)	Calpain	=	0.071
CCC(C)C(NC(=O)C(CC(C)C)NC(=O)OCc1ccccc1)C(=O)C(=O)N1CC(C(=O)NC(Cc2ccc3ccccc3c2)C(N)=O)C1 (stereo not drawn)	Calpain	=	0.0399
CCC(C)C(NC(=O)C(CC(C)C)NC(=O)OCc1ccccc1)C(=O)C(=O)NCC(=O)N(C)C(Cc1ccccc1)C(N)=O (stereo not drawn)	Calpain	=	0.00068
CCC(C)C(NC(=O)C(CC(C)C)NC(=O)Cc1ccccc1)C(=O)C(=O)NCC(=O)NC(Cc1ccc2ccccc2c1)C(N)=O (stereo not drawn)	Calpain	=	0.00081
CCC(C)C(NC(=O)C(CC(C)C)NC(=O)C(Cc1ccccc1)NC(C)=O)C(=O)C(=O)NC(CCCNC(=N)N)C(N)=O (stereo not drawn)	Calpain	=	0.0371
CCC(C)C(NC(=O)C(CC(C)C)NC(=O)OCc1ccccc1)C(=O)C(=O)NCC(=O)NC(Cc1ccc(F)cc1)C(N)=O (stereo not drawn)	Calpain	=	0.00227
CC(C)CC(NC(=O)OCc1ccccc1)C(=O)NC(C)C(=O)C(=O)NCC(=O)NC(Cc1ccc2ccccc2c1)C(N)=O (stereo not drawn)	Calpain	=	0.0103

* * *

Target: Cathepsin L (Homo sapiens, UniProt P07711)
Sequence (P07711 114-333, species assumed): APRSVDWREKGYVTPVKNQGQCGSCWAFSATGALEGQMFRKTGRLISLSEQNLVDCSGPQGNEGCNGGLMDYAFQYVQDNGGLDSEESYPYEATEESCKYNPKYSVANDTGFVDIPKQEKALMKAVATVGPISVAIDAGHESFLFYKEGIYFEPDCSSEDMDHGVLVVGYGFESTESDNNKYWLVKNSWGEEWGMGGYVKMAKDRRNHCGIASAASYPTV
pKi: −log10 of the molar value.
# Lookup of reported pKi keyed by entry

COMPOUND	RELATION_SIGN	pKi
CC(NC(=O)C(Cc1ccccc1)NC(=O)Cc1ccccc1)C(=O)C(=O)NC(Cc1ccccc1)C(=O)NC(Cc1ccc2ccccc2c1)C(N)=O (centres unmarked) [PHELIX216]	<	3.00
CC(C)CC(NC(=O)OCc1ccccc1)C(=O)NC(C)C(=O)C(=O)N1CC(C(=O)NC(Cc2ccccc2)C(N)=O)C1 (centres unmarked)	=	7.27
CCC(C)C(NC(=O)C(CC(C)C)NC(=O)OCc1ccccc1)C(=O)C(=O)NCC(=O)NC(Cc1cccc(F)c1)C(N)=O (centres unmarked)	=	8.56
CC(NC(=O)C(Cc1ccccc1)NC(=O)Cc1ccccc1)C(=O)C(=O)NC(Cc1ccccc1)C(=O)NC(C)(C)C(=O)O (centres unmarked)	=	7.25
CC(NC(=O)C(Cc1cccc(C(F)(F)F)c1)NC(=O)Cc1ccccc1)C(=O)C(=O)NC(Cc1ccccc1)C(=O)NC(C)(C)C(N)=O (centres unmarked)	=	7.18
